- tested target: MtEis (Mycobacterium tuberculosis)
- method summary: Steady-state acetyltransferase assays (DTNB, absorbance at 412 nm), bisubstrate kinetic analysis
- Assay type: biochemical
- condition label: binding of AcCoA to free MtEis; read-out: K d,AcCoA(E)
pKd: −log10 of the molar value.

# compound structure, pKd
data = [
    ("CC(=O)SCCNC(=O)CCNC(=O)[C@H](O)C(C)(C)COP(=O)(O)OP(=O)(O)OC[C@H]1O[C@@H](n2cnc3c(N)ncnc32)[C@H](O)[C@@H]1OP(=O)(O)O", 4.74),
]

* * *

- tested target: MtEis (Mycobacterium tuberculosis, UniProt P9WFK7)
- Sequence (P9WFK7 whole entry, looked up): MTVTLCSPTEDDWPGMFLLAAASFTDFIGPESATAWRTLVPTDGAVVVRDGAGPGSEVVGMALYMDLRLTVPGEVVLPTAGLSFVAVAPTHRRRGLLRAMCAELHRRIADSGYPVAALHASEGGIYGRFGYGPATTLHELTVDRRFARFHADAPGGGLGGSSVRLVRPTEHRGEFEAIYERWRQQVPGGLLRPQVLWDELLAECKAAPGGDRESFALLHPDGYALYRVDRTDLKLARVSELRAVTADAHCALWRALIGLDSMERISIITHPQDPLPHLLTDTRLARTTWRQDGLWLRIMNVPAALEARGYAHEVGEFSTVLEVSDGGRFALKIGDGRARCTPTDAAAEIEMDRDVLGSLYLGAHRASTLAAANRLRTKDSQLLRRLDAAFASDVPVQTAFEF
- method summary: Steady-state acetyltransferase assays (DTNB, absorbance at 412 nm), bisubstrate kinetic analysis
- Assay type: biochemical
- condition label: binding of AcCoA to the NEO bound enzyme; read-out: K d,AcCoA(AG•E)
pKd: −log10 of the molar value.
result type: pKd

# compound, tested target, numeric value
data = [
    ("CC(=O)SCCNC(=O)CCNC(=O)[C@H](O)C(C)(C)COP(=O)(O)OP(=O)(O)OC[C@H]1O[C@@H](n2cnc3c(N)ncnc32)[C@H](O)[C@@H]1OP(=O)(O)O [AcCoA, acetyl coenzyme A]", "MtEis (Mycobacterium tuberculosis, UniProt P9WFK7)", 3.95),
]

* * *

- tested target: MtEis (Mycobacterium tuberculosis, UniProt P9WFK7)
- method summary: Steady-state acetyltransferase assays (DTNB, absorbance at 412 nm), bisubstrate kinetic analysis
- Format: biochemical
- condition label: binding of AcCoA to the KAN bound enzyme; read-out: K d,AcCoA(AG•E)
pKd: −log10 of the molar value.
result type: pKd

# compound structure, tested target, numeric value
rows = [
    ("CC(=O)SCCNC(=O)CCNC(=O)[C@H](O)C(C)(C)COP(=O)(O)OP(=O)(O)OC[C@H]1O[C@@H](n2cnc3c(N)ncnc32)[C@H](O)[C@@H]1OP(=O)(O)O", "MtEis (Mycobacterium tuberculosis, UniProt P9WFK7)", 4.35),
]
